Each recorded value in this set is attributed to patent US20200339692A1.

TARGET OR SYSTEM: T1, human PD-L1 (Cat. #10084-H08H, Sino Biological) (human, UniProt Q9NZQ7 19-239)
T1 construct: Bought recombinant protein used in the Biacore test; also called hPDL1; hPD-L1
T1 sequence (Q9NZQ7 19-239 limits assumed): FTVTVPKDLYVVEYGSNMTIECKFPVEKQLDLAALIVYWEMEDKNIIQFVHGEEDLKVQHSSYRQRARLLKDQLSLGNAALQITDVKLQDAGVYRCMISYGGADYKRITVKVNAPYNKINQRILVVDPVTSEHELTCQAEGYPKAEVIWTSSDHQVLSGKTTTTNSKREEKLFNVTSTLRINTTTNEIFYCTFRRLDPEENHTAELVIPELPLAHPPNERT
METHOD NOTES: SPR, Biacore X100, 1:1 Langmuir
READOUT LABEL: koff (s⁻¹)
Write the value in s⁻¹ as a bare number.

BINDER: H12L64 (antibody, human IgG1, kappa, V domains shown, from the HRP00052 mutant library; also called 24D5 H12 and 24D5 L64) VH: QVQLVQSGAEVKKPGASVKVSCKASGYTFTSYWMHWVRQAPGQGLEWMGRITPSSGFAMYNEKFKNRVTMTRDTSTSTVYMELSSLRSEDTAVYYCARGGSSYDYFDYWGQGTTVTVSS VL: DIVLTQSPASLAVSPGQRATITCRASESVSIHGTHLMHWYQQKPGQPPKLLIYVASYAASGVPARFSGSGSGTDFTLTINPVEAEDTANYYCQQSFEDPLTFGQGTKLEIKR
koff (s⁻¹): 7.1e-05
--
BINDER: H12L61 (antibody, human IgG1, kappa, V domains shown, also called 24D5 H12 and 24D5 L61) VH: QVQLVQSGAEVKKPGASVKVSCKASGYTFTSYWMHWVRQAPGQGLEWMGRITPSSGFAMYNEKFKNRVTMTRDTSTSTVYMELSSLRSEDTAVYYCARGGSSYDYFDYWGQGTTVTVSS VL: DIVLTQSPASLAVSPGQRATITCRASESVSIHGTHLMHWYQQKPGQPPKLLIYAASNLESGVPARFSGSGSGTDFTLTINPVEAEDTANYYCQQSFEDPLTFGQGTKLEIKR
koff (s⁻¹): 7.1e-05

Now let's try a different one.
koff reading for H5L11 (antibody, human IgG1, kappa, V domains shown, from the HRP00049 mutant library; also called 9-2 H5 and 9-2 L11) VH: QVQLQESGPGLVKPSQTLSLTCTVSGGSISDGSAYWSWIRQHPGKGLEYIGFISRAGSTYNTPSLKGRVTISRDTSKNQFSLKLSSVTAADTAVYYCARSGGWLAPFDYWGRGTLVTVSS VL: DIVMTQSPDSLAVSLGERATINCKSSQSLFYHSNQKHSLAWYQQKPGQPPKLLIYGASTRESGVPDRFSGSGSGTDFTLTISSLQAEDVAVYYCQQYYGYPYTFGGGTKVEIKR : 0.000124
